// EC50 lookup, one value per entry
test-system: alpha2B receptor (Homo sapiens)
Construct: expressed in transfected cells; host or cells: NIH-3T3
Sequence (P18089 whole entry): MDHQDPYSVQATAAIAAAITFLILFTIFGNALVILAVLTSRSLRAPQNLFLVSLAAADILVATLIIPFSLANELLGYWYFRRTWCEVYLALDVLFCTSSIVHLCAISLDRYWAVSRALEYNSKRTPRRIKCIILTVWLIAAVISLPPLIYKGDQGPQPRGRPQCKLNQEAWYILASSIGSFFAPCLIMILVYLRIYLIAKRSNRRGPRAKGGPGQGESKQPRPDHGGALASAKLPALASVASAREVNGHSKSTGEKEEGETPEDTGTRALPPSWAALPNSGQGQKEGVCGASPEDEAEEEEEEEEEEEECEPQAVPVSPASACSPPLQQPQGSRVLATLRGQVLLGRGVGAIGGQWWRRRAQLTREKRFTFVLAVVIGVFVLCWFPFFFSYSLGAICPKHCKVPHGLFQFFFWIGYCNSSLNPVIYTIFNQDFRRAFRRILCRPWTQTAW
assay: RSAT assay, alpha 2B
Format: cell-based
Supply the numeric figure in nM, leaving out any unit text.

// solved cases for EC50 follow
- Clc1ccc(Br)cc1CNC1=NCCO1: 20
- Clc1ccccc1CNC1=NCCO1: 3.3
- Clc1cccc(CNC2=NCCS2)c1Cl: 28

For this molecule ( FC(F)Oc1ccccc1CNC1=NCCO1 ), measured EC50 is 34

For Fc1c(Cl)cccc1CNC1=NCCO1 [drawing 19] the molecule record lists EC50 as 10

For this molecule ( Cc1cccc(CNC2=NCCS2)c1Cl ), measured EC50 is 11

So for Fc1cccc(CNC2=NCCO2)c1 , the logged EC50 turned out to be 39

Reported EC50 for Brc1ccccc1CNC1=NCCS1 was 29

Documented EC50 of COc1c(Cl)cccc1CNC1=NCCS1 : 22

Query COc1c(C)cccc1CNC1=NCCS1 yields EC50 of 27

Value of measured EC50 for the entry COc1ccccc1CNC1=NCCO1 [drawing 17] : 13.4

Value of EC50 reported for the molecule Brc1cccc(CNC2=NCCS2)c1 is 75

Query Clc1cccc(CNC2=NCCO2)c1Cl yields EC50 of 5

Quick note, EC50 for Cc1cc(Cl)cc(CNC2=NCCS2)c1F landed at 351

Documented EC50 of COc1c(Br)cccc1CNC1=NCCS1 : 31

* * *

test-system: alpha2C receptor (Homo sapiens, UniProt P18825)
Construct: expressed in transfected cells; host or cells: NIH-3T3
Sequence (P18825 whole entry): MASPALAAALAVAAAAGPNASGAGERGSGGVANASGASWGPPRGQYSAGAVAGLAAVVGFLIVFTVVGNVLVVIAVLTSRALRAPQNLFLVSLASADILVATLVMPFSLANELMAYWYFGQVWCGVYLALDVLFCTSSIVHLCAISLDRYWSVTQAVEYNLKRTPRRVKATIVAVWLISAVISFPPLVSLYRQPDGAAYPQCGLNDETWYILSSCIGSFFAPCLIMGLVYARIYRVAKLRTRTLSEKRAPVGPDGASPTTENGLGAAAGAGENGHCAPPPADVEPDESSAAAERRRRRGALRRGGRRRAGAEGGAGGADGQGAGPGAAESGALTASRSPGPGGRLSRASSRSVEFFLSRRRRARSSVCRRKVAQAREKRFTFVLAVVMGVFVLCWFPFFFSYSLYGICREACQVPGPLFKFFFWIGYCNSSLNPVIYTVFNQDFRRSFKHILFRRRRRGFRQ
assay: RSAT assay, alpha 2C
Format: cell-based
Listed here are molecules together with their documented EC50.
// return numeric value only (unit: nM, not printed)

Solved entries:
- COc1c(Cl)cccc1CNC1=NCCS1: 99
- Brc1cccc(CNC2=NCCO2)c1: 83

Next, consider the following molecule.
Reported alpha2C receptor (Homo sapiens, UniProt P18825) EC50 for item Clc1ccc(Br)cc1CNC1=NCCO1 was 81

* * *

test-system: alpha2B receptor (Homo sapiens)
Construct: expressed in transfected cells; host or cells: NIH-3T3
assay: RSAT assay, alpha 2B
Type: cell-based
conditions: RSAT; ratio of maximal effect to standard full agonist brimonidine (UK14304)
Overview of recorded (rel. efficacy) Alpha 2B for various compounds
// response body must contain only the number

Noted for Clc1ccc(Br)cc1CNC1=NCCO1 : its (rel. efficacy) Alpha 2B reads 0.98

What the record says about Fc1c(Cl)cccc1CNC1=NCCS1 : (rel. efficacy) Alpha 2B is 1.01

Just so you know, measured (rel. efficacy) Alpha 2B for Fc1c(I)cccc1CNC1=NCCS1 came out at 1.0

* * *

test-system: alpha2C receptor (Homo sapiens, UniProt P18825)
Construct: expressed in transfected cells; host or cells: NIH-3T3
assay: RSAT assay, alpha 2C
Format: cell-based
conditions: RSAT; ratio of maximal effect to standard full agonist brimonidine (UK14304)
Please map values of (rel. efficacy) Alpha 2C to classes as shown: bin 1 = under 0.6, bin 2 = from 0.6 up to 0.7, bin 3 = 0.7 and over

Some solved cases for reference:
- FC(F)Oc1cccc(CNC2=NCCO2)c1: bin 1
- COc1ccc(Cl)cc1CNC1=NCCS1: bin 1
- Cc1cccc(CNC2=NCCS2)c1Cl: bin 3
- FC(F)(F)c1ccccc1CNC1=NCCO1: bin 3
- COc1ccccc1CNC1=NCCS1 [drawing 16]: bin 3

Data request: // bin(item) where item = Fc1ccc(Br)cc1CNC1=NCCO1
Data returned: bin 2

Data request: Bin? Brc1ccccc1CNC1=NCCS1
Data returned: bin 3

Data request: The entry to classify is FC(F)(F)c1cccc(CNC2=NCCS2)c1Cl ; which class holds it?
Data returned: bin 1

Data request: Lab note: sort Fc1ccc(Cl)c(F)c1CNC1=NCCO1 into the matching (rel. efficacy) Alpha 2C band.
Data returned: bin 1

Data request: Consider Fc1c(CNC2=NCCS2)cccc1C(F)(F)F . To which (rel. efficacy) Alpha 2C class does it belong?
Data returned: bin 3

Data request: Hi there! Could you help me figure out the category for Fc1c(I)cccc1CNC1=NCCS1 please?
Data returned: bin 3

Data request: Please let me know in which category the item Clc1ccc(Br)cc1CNC1=NCCS1 belongs.
Data returned: bin 1

Data request: Sort into band: COc1ccccc1CNC1=NCCO1 [drawing 17]
Data returned: bin 1

Data request: Exercise: read the entry Cc1cc(Br)c(F)c(CNC2=NCCS2)c1 and state which class it falls under.
Data returned: bin 2

Data request: Band for the recorded (rel. efficacy) Alpha 2C of COc1c(Cl)cccc1CNC1=NCCS1 ?
Data returned: bin 3

Data origin, for the record: patent US8329918B2
